The values you see were collected from paper PMC12125979.

Target: BxlE (Streptomyces thermoviolaceus, UniProt Q76BU9)
Sequence (Q76BU9 1-436): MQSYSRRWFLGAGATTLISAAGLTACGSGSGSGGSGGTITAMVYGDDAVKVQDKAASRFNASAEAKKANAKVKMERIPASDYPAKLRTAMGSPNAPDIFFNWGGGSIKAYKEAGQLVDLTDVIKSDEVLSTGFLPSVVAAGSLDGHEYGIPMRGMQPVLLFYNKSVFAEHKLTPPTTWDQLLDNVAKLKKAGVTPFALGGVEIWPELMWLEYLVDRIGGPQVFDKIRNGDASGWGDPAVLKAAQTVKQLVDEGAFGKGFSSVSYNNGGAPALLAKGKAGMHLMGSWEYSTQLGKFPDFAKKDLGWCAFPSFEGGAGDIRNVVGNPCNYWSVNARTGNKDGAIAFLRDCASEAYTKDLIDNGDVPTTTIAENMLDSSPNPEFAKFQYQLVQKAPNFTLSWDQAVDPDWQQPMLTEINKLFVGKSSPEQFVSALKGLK
Assay: biochemical
REPORTED ENDPOINT: Kd (nM)

>  <COMPOUND>
OC1OC[C@@H](O[C@@H]2OC[C@@H](O[C@@H]3OC[C@@H](O[C@@H]4OC[C@@H](O)[C@H](O)[C@H]4O)[C@H](O)[C@H]3O)[C@H](O)[C@H]2O)[C@H](O)[C@H]1O (stereo partly drawn) [β-1,4X4]

>  <TESTED ON>
BxlE (Streptomyces thermoviolaceus, UniProt Q76BU9)

>  <Kd [nM]>
13.2

$$$$

A. OC1OC[C@@H](O[C@@H]2OC[C@@H](O[C@@H]3OC[C@@H](O)[C@H](O)[C@H]3O)[C@H](O)[C@H]2O)[C@H](O)[C@H]1O (stereo partly drawn) [β-1,4X3]
B. OC1OC[C@@H](O[C@@H]2OC[C@@H](O)[C@H](O)[C@H]2O)[C@H](O)[C@H]1O (stereo partly drawn) [β-1,4X2]
Hey, which is lower on measured Kd, A or B ? Write the label of whichever entry you select. A
(A: 6.28 nM, B: 15.1 nM)

----------
Target: XylRA
Assay: isothermal titration calorimetry
Conditions: 10 mM Tris-HCl pH 8.0, 100 mM NaCl, 25°C; effector
REPORTED ENDPOINT: Kd (µM)
// return numeric value only (unit: µM, not printed)

Answer with reported Kd of OC1OC[C@@H](O)[C@H](O)[C@H]1O (stereo partly shown) [X, xylose] 5.1
